# System: BT-549 breast
# assay-remarks: NCI-60 one-dose screen, 48 h (100 = growth as untreated, 0 = no growth, -100 = all killed)
# measurement-parameters: 10 µM unless noted
About 83,000 compounds went through this panel and 20% of them were active in at least one assay; those are over-represented in the sample as a whole.
Reported values of growth for individual entries
Output spec: scalar in %, unitless text.

CCCCCCCCCCCCCCCCCC1OCC(COC(=O)O[C@]2(CC)C(=O)OCc3c2cc2n(c3=O)Cc3cc4ccccc4nc3-2)O1 (stereo not given in full) : 80

For Cc1c(C(=O)NCCN2CCOCC2)cn2ncnc(Oc3ccc(NC(=O)Nc4ccc(Cl)c(C(F)(F)F)c4)cc3)c12 the compound record lists growth as 45.6

In plain terms, CCCCCCn1c(-c2ccc(C(=O)O/N=C(\N)c3ccc4c(c3)OCO4)cc2)nc(-c2ccccc2)c1-c1ccccc1 has a documented growth of 43.5

# growth (compound: Cc1[nH]c(C(=O)Nc2ccc(C(=O)NCCN)cc2OC(C)C)c(Cl)c1Cl ) is 103

Reported growth ( COc1cc(Nc2cn[nH]c2-c2ccc(Cl)cc2)cc(OC)c1OC ) = 46.5

---

# System: HOP-62 NSCLC
# assay-remarks: NCI-60 one-dose screen, 48 h (100 = growth as untreated, 0 = no growth, -100 = all killed)
# measurement-parameters: 10 µM unless noted
The panel holds about 83,000 compounds, 20% with a hit somewhere; the sample as a whole holds those more often.
The label y is reserved for growth strictly under 60%; n covers values equal to or above it.

In the record for CN1CCN(Cc2ccc(NC(=O)c3ccc(C(C)(C)C)c(C#Cc4cnc5cccnn45)c3)cc2C(F)(F)F)CC1 , is growth less than 60%?
y

API: query returns whether the compound falls strictly under 60% in growth. Query: CCN(CC)S(=O)(=O)c1ccc(NC(=O)CSc2nnc(C)n2-c2ccccc2)cc1
n

# TODO verify growth < 60% strictly for this compound: CCCCCCn1c(-c2ccc(C(=O)O/N=C(\N)c3ccc4c(c3)OCO4)cc2)nc(-c2ccccc2)c1-c1ccccc1
n

Confirm or reject: growth of CCc1ccc(Oc2c(-c3ccc(OCc4ccc(Cl)cc4)cc3O)n[nH]c2C(F)(F)F)cc1 lies strictly below 60%
y

Hello, I'm reviewing records and need to know if growth of CN1CCN(c2ccc(-c3cc4c(Nc5ccc(F)c(Cl)c5)ncnn4c3)cc2)CC1 is below 60%. Could you check?
n

---

# Test system: U251 CNS
# assay-remarks: NCI-60 one-dose screen, 48 h
# measurement-parameters: 10 µM unless noted
About 83,000 compounds went through this panel and 20% of them were active in at least one assay; those are over-represented in the sample as a whole. The source made the active and inactive calls. Rule for the calls: active = growth percent below 10; inactive = the rest.
Assign a class; possible classes are Y = active, N = inactive

Answered cases to consult:
NCCCNc1nc2ccccc2c2c(=O)c3cc(C(F)(F)F)ccc3sc12 : Y
COc1ccc(OC)c(/C=C/c2nnc(Nc3ccccc3)o2)c1 : N
COc1cc(OCc2cccc(-c3ccc(C(O)c4nccs4)cc3)c2C)cc(OC)c1CNCCNC(C)=O (stereo unspecified) : N

Each compound tested received a call. Report the one for c1cc(NCCc2ccncc2)nc(-n2cnc3ccccc32)c1 .
N

How did this test come out for NCCCNc1nc2ccc(Cl)cc2c2c(=O)c3cc(F)ccc3sc12 ?
N

Give the logged outcome of this assay for the following compound: O=C(CS(=O)c1oc(-c2cccs2)nc1S(=O)(=O)c1ccc(Br)cc1)c1ccccc1 (stereo unspecified)
N

Answer briefly: the call reported for CC(=O)Oc1ccccc1C(=O)N=C1[Se]CCCN1C(=O)c1ccccc1OC(C)=O in this assay.
N

Hey, what did the test say about COc1ccc(OC)c(/C=C/C(=O)N/N=C/c2ccc(Cl)cc2)c1 ?
N

Just curious, what result did COc1nc2ccccc2cc1-c1nc2c(cnn2-c2ccc(Br)cc2)c(=O)[nH]1 get here?
N

// return assay outcome for Cc1cc(=O)[nH]c(=O)n1Cc1cn(-c2c3ccccc3nc3ccccc23)nn1
N

Write down the call the test reported for this compound. Item: CSc1ccc2c(c1)c(CCN)c(C)n2Cc1ccc(Cl)c(Cl)c1
Y

Look up the recorded call for Cc1ccc(C(=O)NN2C(=O)CSC2c2ccc(Cl)cc2)cn1 (stereo unspecified) in this test.
N

Given O=S(=O)(NCCCNc1cc(-c2c(-c3cccc(O)c3)nc3sccn23)ccn1)c1cccc2ccccc12 , state the outcome it received in this test.
N

How was Cc1cccc2c3c(sc12)C(c1ccc(F)cc1)C(C#N)=C(N)O3 (stereo unspecified) classified in this test?
N

Assay outcome for CCCCCCn1c(-c2ccc(C(=O)O/N=C(\N)c3ccc(OC)cc3)cc2)nc(-c2ccccc2)c1-c1ccccc1 : what was it?
Y

Each compound tested received a call. Report the one for CCn1cnc2c1c(=O)[nH]c(=O)n2CC1CCC(CNS(=O)(=O)c2ccc(OC3CCOCC3)c(F)c2)CC1 (stereo unspecified) .
N

What classification did CC/C=C\C[C@@H]1C/C=C2/C(=O)C=C[C@H]2C/C=C\CCCC(=O)O1 end up with in this test?
Y

In this assay, the call recorded for COc1ccc(C(=O)n2nc(-c3ccccc3)nc2N)cc1OC was what?
N

What outcome does the record of this test show for Cc1nc(/N=C(\N)NC(=O)Nc2ccccc2Cl)sc1C ?
N

Write down the call the test reported for this compound. Item: COc1ccc(N2C(=O)C(Oc3ccccc3)C2c2ccc(C)cc2)cc1 (stereo unspecified)
N

In this assay, the call recorded for COc1ccc(-c2nc3sc(-c4ccc(Cl)cc4)cn3n2)cc1 was what?
Y

What call does the record list for O=C(N/N=C/c1ccc(Cl)cc1)c1ccc(C(F)(F)F)nc1Nc1cccc(C(F)(F)F)c1 ?
Y
